B1: MNAT1 (parent)
chain: SLREYNDFLEEVEEIVFNLTNNVD

Variants of: B1
ASSAY NAME: protein stability index of a GFP-peptide fusion (GPS, HEK-293T) (PSI 1-6); higher = more stable;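 further: lentivirally expressed fusions sorted by FACS into six bins by GFP to DsRed ratio, PSI derived from sequencing read proportions per bin multiplied by bin number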
MEASUREMENT PARAMETERS: c terminus: a fixed tail appended
# protein stability index per entry
VALUE TYPE: protein stability index

SEQUENCE INPUT | ENDPOINT VALUE
SLREYNDFLEEVEENVFNLTNNVD [I15N] | 4.25
SLREYNDFLEEVEEKVFNLTNNVD [I15K] | 4.08
SLREYNDCLEEVEEIVFNLTNNVD [F8C] | 3.8
SLYEYNDFLEEVEEIVFNLTNNVD [R3Y] | 1.86
ALREYNDFLEEVEEIVFNLTNNVD [S1A] | 2.1
SLHEYNDFLEEVEEIVFNLTNNVD [R3H] | 2.71
LLREYNDFLEEVEEIVFNLTNNVD [S1L] | 1.87
SLREYNDPLEEVEEIVFNLTNNVD [F8P] | 4.78
SLLEYNDFLEEVEEIVFNLTNNVD [R3L] | 1.64
SLREYMDFLEEVEEIVFNLTNNVD [N6M] | 1.76
SLREYNDFLEEVEEIVFNLTNQVD [N22Q] | 1.84
SLREYYDFLEEVEEIVFNLTNNVD [N6Y] | 1.87
SLREYNAFLEEVEEIVFNLTNNVD [D7A] | 2.43
SLREYNDFEEEVEEIVFNLTNNVD [L9E] | 4.32
SLREYNKFLEEVEEIVFNLTNNVD [D7K] | 1.58
SLREYDDFLEEVEEIVFNLTNNVD [N6D] | 2.4
SLREYNDFLEEVEEIGFNLTNNVD [V16G] | 3.86
SLRETNDFLEEVEEIVFNLTNNVD [Y5T] | 4.08
SLREYNDFLEEVEEIVFNLTCNVD [N21C] | 1.48
SLRAYNDFLEEVEEIVFNLTNNVD [E4A] | 1.88
SLREYADFLEEVEEIVFNLTNNVD [N6A] | 2.82
SLREYNDFLEEVEEIVFNLTNNVY [D24Y] | 1.9
